All values here come from ChEMBL document CHEMBL1133878.

Hi there, I'd appreciate the recorded Selectivity ratio for every entry that follows.
- MEASURED_TARGET: Thrombin & trypsin (Homo sapiens) (UniProt P00734+P07477+P07478+P35030)
- PROCEDURE_TEXT: Selectivity ratio (trypsin/thrombin) was calculated
- Type: protein assay
API doc: respond with a numeric literal and nothing else, no unit.

Tested system Thrombin & trypsin (Homo sapiens) (UniProt P00734+P07477+P07478+P35030); Selectivity ratio recorded for CC/N=C(/N)NCCCC(NS(=O)(=O)c1cccc2c(N(C)C)cccc12)C(=O)N1CCCCC1 (stereo not given) was 178

Tested system Thrombin & trypsin (Homo sapiens) (UniProt P00734+P07477+P07478+P35030); Selectivity ratio recorded for CN(C)c1cccc2c(S(=O)(=O)NC(CCCN3CCN=C3N)C(=O)N3CCCCC3)cccc12 (stereo not given) was 525

Tested system Thrombin & trypsin (Homo sapiens) (UniProt P00734+P07477+P07478+P35030); Selectivity ratio recorded for CN(C)c1cccc2c(S(=O)(=O)NC(CCCNC3=NCCN3)C(=O)N3CCCCC3)cccc12 (stereo not given) was 29.4

Tested system Thrombin & trypsin (Homo sapiens) (UniProt P00734+P07477+P07478+P35030); Selectivity ratio recorded for C/N=C(/N)NCCCC(NS(=O)(=O)c1cccc2c(N(C)C)cccc12)C(=O)N1CCCCC1 (stereo not given) was 962

Tested system Thrombin & trypsin (Homo sapiens) (UniProt P00734+P07477+P07478+P35030); Selectivity ratio recorded for CN(C)c1cccc2c(S(=O)(=O)NC(CCCN=C(N)N)C(=O)N3CCCCC3)cccc12 (stereo not given) was 28.2

---

Recorded below: Ki, system Serine protease 1 (Bos taurus, UniProt P00760).
In your response, put the unit directly after the numeric value.

The compound CN(C)c1cccc2c(S(=O)(=O)NC(CCCNC3=NCCN3)C(=O)N3CCCCC3)cccc12 (configuration not stated) showed Ki equal to 116 µM

The compound CC/N=C(/N)NCCCC(NS(=O)(=O)c1cccc2c(N(C)C)cccc12)C(=O)N1CCCCC1 (configuration not stated) showed Ki equal to 337 µM

---

Hi there, I'd appreciate the recorded Ki for every entry that follows.
Only the number, expressed in nM, is required.

Tested system Prothrombin (Homo sapiens); Ki recorded for C/N=C(/N)NCCCC(NS(=O)(=O)c1cccc2c(N(C)C)cccc12)C(=O)N1CCCCC1 (centres undefined) was 958

Tested system Prothrombin (Homo sapiens); Ki recorded for CN(C)c1cccc2c(S(=O)(=O)NC(CCCN3CCN=C3N)C(=O)N3CCCCC3)cccc12 (centres undefined) was 530
